test system: CYP1A2 mRNA (suppression of expression); assay: CYP1A2 mRNA level in human hepatocytes after 48 h treatment (RT-PCR); assay type: cell-based; settings: human hepatocytes Lot 321, 48 h, 1.25–2500 nM
readout kind: IC50 at 48 h (nM)
The reply should be a number in nM, with the unit left off.

Return value of IC50 at 48 h for input COc1cc2cc(c1Cl)N(C)C(=O)CC(OC(=O)C(C)N(C)C(=O)CCS)C1(C)OC1C(C)C1CC(O)(NC(=O)O1)C(OC)C=CC=C(C)C2 (stereo not shown) , no commentary.
34.3

---

system: CYP2C8 mRNA; assay: CYP2C8 mRNA level in human hepatocytes after 48 h treatment (RT-PCR); conditions: plated cryopreserved human hepatocytes, IC50, suppression of CYP2C8 mRNA expression, human hepatocytes Lot 319, 48 h, 1.25–2500 nM
readout kind: IC50 at 48 h (nM)
Entry rule: numbers only, all in nM.

Give IC50 at 48 h for COc1cc2cc(c1Cl)N(C)C(=O)CC(OC(=O)C(C)N(C)C(=O)CCS)C1(C)OC1C(C)C1CC(O)(NC(=O)O1)C(OC)C=CC=C(C)C2 (stereo not shown)
48.7

---

tested on: CYP2B6 mRNA (suppression of expression); test: CYP2B6 mRNA level in human hepatocytes after 48 h treatment (RT-PCR); assay type: cell-based; conditions: human hepatocytes Lot 319, 48 h, 1.25–2500 nM
readout kind: IC50 at 48 h
Kindly report the value followed by its unit.

Tell me its IC50 at 48 h given COc1cc2cc(c1Cl)N(C)C(=O)CC(OC(=O)C(C)N(C)C(=O)CCS)C1(C)OC1C(C)C1CC(O)(NC(=O)O1)C(OC)C=CC=C(C)C2 (stereo not shown) as the entry.
25 nM

---

test system: CYP2C9 mRNA; test: CYP2C9 mRNA level in human hepatocytes after 48 h treatment (RT-PCR); settings: plated cryopreserved human hepatocytes, IC50, suppression of CYP2C9 mRNA expression, human hepatocytes Lot 319, 48 h, 1.25–2500 nM
readout kind: IC50 at 48 h

Name the recorded IC50 at 48 h of the compound listed here: COc1cc2cc(c1Cl)N(C)C(=O)CC(OC(=O)C(C)N(C)C(=O)CCS)C1(C)OC1C(C)C1CC(O)(NC(=O)O1)C(OC)C=CC=C(C)C2 (stereo not shown)
788 nM
